Biological target: estrogen receptor alpha (Homo sapiens)
Construct: endogenous in cells; host or cells: T47D human breast cancer cells (ATCC)
Experiment: ERα downregulation assay in T47D breast cancer cells (ERα ELISA)
Assay type: cell-based
Details: downregulation of ERα relative to fulvestrant (100%), 1E-5 M, 24 hours, negative = upregulation
valueType: DR (%)

Below are worked cases with known answers.
molecule: CCCN1CC(Oc2ccc(C(=O)c3c(-c4ccc(O)cc4)sc4cc(O)ccc34)cc2)C1.O=C(O)C(F)(F)F
valueType: DR (%)
unitText: %
observedValue: 79
//
molecule: CCCN1CC(Oc2ccc(C(=O)c3c(-c4ccc(O)cc4C)sc4cc(O)ccc34)cc2)C1.Cl
valueType: DR (%)
unitText: %
observedValue: 64
//
molecule: CN1CC(Oc2ccc(C(=O)c3c(-c4ccc(O)cc4)sc4cc(O)ccc34)cc2)C1.Cl
valueType: DR (%)
unitText: %
observedValue: 48

a: CCCN1CC(Oc2ccc(C(OC)c3c(-c4ccccc4Cl)noc3-c3ccc(O)cc3)cc2)C1 (stereo not shown)
b: CCCN1CC(Oc2ccc(C(=O)c3c(-c4c(F)cccc4F)noc3-c3ccc(O)cc3)cc2)C1.Cl
c: Cl.O=C(c1ccc(OC2CN(C3CCC3)C2)cc1)c1c(-c2ccc(O)cc2)sc2cc(O)ccc12
Sort by DR (%), descending. Note for the reader: the ranking is given by listing the labels in the order requested.
b, a, c

---

Assay: Rapid Rat PK after oral administration
Format: in vivo, rats (Rattus Norvegicus)
Conditions: 20 umol/kg, plasma, oral 20 μmol/kg, read-out: RRat Cmax
valueType: Cmax (nM)

Below are worked cases with known answers.
molecule: CC(C)CN1CC(Oc2ccc(-c3c(-c4ccccc4Cl)noc3-c3ccc(O)cc3)cc2)C1.Cl [compound 7w]
Cmax, nM: 520
--
molecule: CCCN1CC(Oc2ccc(-c3c(-c4ccccc4Cl)noc3-c3ccc(O)cc3)cc2)C1 [compound 6g]
Cmax, nM: 570
--
molecule: CCCN1CC(Oc2ccc(C(=C(CC)c3ccccc3)c3cccc(O)c3)cc2)C1 (mixture of isomers) [compound 6w]
Cmax, nM: 230
--
molecule: Cl.Oc1ccc(-c2onc(-c3ccccc3Cl)c2-c2ccc(OC3CN(CC4CCC4)C3)cc2)cc1 [compound 7z]
Cmax, nM: 350
--
molecule: Cl.Oc1ccc(-c2onc(-c3ccccc3Cl)c2-c2ccc(OC3CN(CC4CC4)C3)cc2)cc1 [compound 7y]
Cmax, nM: 290

A: Cl.Oc1ccc(-c2onc(-c3ccccc3Cl)c2-c2ccc(OC3CN(CCCF)C3)cc2)cc1 [compound 7aa]
B: CCCN1CC(Oc2ccc(C(=C(CC)c3ccccc3)c3ccccc3)cc2)C1.O=C(O)C(F)(F)F [compound 6u]
Please indicate which has the smaller reported Cmax: A , or B . Identify your selection by its label.
B
(B: 450 nM, A: 990 nM)

---

Target: estrogen receptor alpha (Homo sapiens, UniProt P03372)
Construct: endogenous in cells; host or cells: T47D human breast cancer cells (ATCC)
Sequence (P03372 1-595): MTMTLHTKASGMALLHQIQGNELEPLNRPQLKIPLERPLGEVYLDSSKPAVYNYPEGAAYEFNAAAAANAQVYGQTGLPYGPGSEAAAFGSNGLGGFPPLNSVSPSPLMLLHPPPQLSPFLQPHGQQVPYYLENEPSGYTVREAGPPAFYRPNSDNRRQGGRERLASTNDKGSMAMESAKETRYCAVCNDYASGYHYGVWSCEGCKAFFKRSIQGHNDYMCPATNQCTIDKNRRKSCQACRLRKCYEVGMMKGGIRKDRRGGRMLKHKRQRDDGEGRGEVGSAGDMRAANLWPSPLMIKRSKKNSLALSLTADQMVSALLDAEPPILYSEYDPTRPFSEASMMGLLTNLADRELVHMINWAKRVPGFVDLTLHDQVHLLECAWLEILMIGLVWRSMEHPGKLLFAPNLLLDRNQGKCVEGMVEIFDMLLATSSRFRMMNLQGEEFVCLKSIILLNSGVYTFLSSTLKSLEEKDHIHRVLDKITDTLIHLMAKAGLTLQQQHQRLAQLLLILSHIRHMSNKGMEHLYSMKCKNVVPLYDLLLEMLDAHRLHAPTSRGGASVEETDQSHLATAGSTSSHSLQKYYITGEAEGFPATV
Assay: ERα downregulation assay in T47D breast cancer cells (ERα ELISA)
Format: cell-based
Settings: downregulation of ERα relative to fulvestrant (100%), 1E-5 M, 24 hours, negative = upregulation
Source text: More specifically, this in vitro bioassay is used to determine the efficacy (fraction of maximal response) of the compound by comparing the data for this compound with those of the reference compound ICI 182,780 (fulvestrant) in the same test (downregulation of fulvestrant is 100% by definition). A more detailed description of the method used is as follows. Cell culture. […]
valueType: DR (%)

smilesInput: Cl.Oc1ccc(-c2onc(-c3ccccc3Cl)c2-c2ccc(OC3CN(CCCF)C3)cc2)cc1
DR (%): 93

smilesInput: CCCN1CC(Oc2ccc(C(=O)c3c(-c4ccccc4C)nsc3-c3ccc(O)cc3)cc2)C1.Cl
DR (%): 90

smilesInput: CC(C)CN1CC(Oc2ccc(C(=O)c3c(-c4ccc(O)cc4)sc4cc(O)ccc34)cc2)C1.Cl
DR (%): 73

Data credit: patent US9540361B2
